IC50 values recorded for UniProt:Q72547
Give bare numbers, in µM.

What value of IC50 has been reported for the following molecule? CC1(C)[C@H](O)CC[C@]2(C)C3=CC[C@@]4(C)[C@@H]5C[C@](C)(COC(=O)c6ccccc6)CC[C@]5(C)CC[C@]4(C)C3=CC[C@@H]12
4.04

Go through the items and report each one's IC50.
1. C=C(C)[C@@H]1CC[C@]2(C)CC[C@]3(C)[C@H](CC[C@@H]4[C@@]5(C)CCC(=O)C(C)(C)[C@@H]5CC[C@]43C)[C@@H]12
2. C=C(C)[C@@H]1CC[C@]2(COC(C)=O)CC[C@]3(C)[C@H](CC[C@@H]4[C@@]5(C)CC[C@H](OC(C)=O)C(C)(C)[C@@H]5CC[C@]43C)[C@@H]12 [BETULIN DIACETATE]
3. COc1cc(/C=C/C(=O)O[C@H]2CC[C@]34C[C@]35CC[C@]3(C)[C@@H]([C@H](C)CCC=C(C)C)CC[C@@]3(C)[C@@H]5CC[C@H]4C2(C)C)ccc1O
4. C=C(CC[C@@H](C)[C@H]1CC[C@@]2(C)[C@@H]3CC[C@H]4C(C)(C)[C@@H](OC(=O)/C=C/c5ccc(O)c(OC)c5)CC[C@@]45C[C@@]35CC[C@]12C)C(C)C

1. 4.94
2. 2.66
3. 3.65
4. 3.08
